Source: patent US12338256B2

Biological target: KRAS G12D (Homo sapiens, UniProt P01116, G12D)
Sequence (P01116 1-188 isoform P01116-2 G12D): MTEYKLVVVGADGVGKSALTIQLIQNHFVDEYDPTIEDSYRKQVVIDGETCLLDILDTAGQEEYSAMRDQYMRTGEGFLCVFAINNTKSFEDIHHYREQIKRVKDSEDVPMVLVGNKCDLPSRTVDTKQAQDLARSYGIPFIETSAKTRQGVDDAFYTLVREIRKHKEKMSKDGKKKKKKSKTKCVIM
Assay: KRAS G12D LoEnz Biochemical Assay, BODIPY-GDP Exchange TR-FRET (Example 500)
Settings: BODIPY-GDP exchange, read-out: KRas (G12D) GDP HTRF IC50
Threshold-based label: IC50 under 0.2 nM gives Fulfilled, IC50 not under 0.2 nM gives Not fulfilled.

INSERT INTO measurements (molecule, group_label) VALUES
  ('Cc1c(F)c(N)cc(-c2nc3c4c(nc(OC[C@H]5CC[C@@H]6C(=O)N(C)CCN56)nc4c2F)N2C[C@H]4CC[C@H](N4)[C@H]2[C@H](C)O3)c1C(F)(F)F (relative stereo) [Compound 123]', 'Not fulfilled'),
  ('Cc1c(F)c(N)cc(-c2nc3c4c(nc(OC[C@]5(CN6CC7(COC7)C6)CC5(F)F)nc4c2F)N2C[C@H]4CC[C@H](N4)[C@H]2[C@H](C)O3)c1C(F)(F)F (single isomer, unassigned) [165 b]', 'Fulfilled'),
  ('C[C@@H]1Oc2nc(-c3cc(N)nc4ccccc34)c(F)c3nc(OC[C@]45CCN4CC(F)(F)C5)nc(c23)N2C[C@H]3CC[C@H](N3)[C@@H]12 [Compound 79]', 'Not fulfilled'),
  ('C#Cc1cccc2cc(O)cc(-c3nc4c5c(nc(OC[C@]67CCN6CC(F)(F)C7)nc5c3F)N3C[C@H]5CC[C@H](N5)[C@H]3[C@H](C)O4)c12 (single isomer, unassigned) [Compound 19]', 'Fulfilled'),
  ('C[C@@H]1Oc2nc(-c3cc(O)cc4cccc(F)c34)c(F)c3nc(OC[C@@]45CCCN4C[C@H](F)C5)nc(c23)N2C[C@H]3CC[C@H](N3)[C@@H]12 [Compound 9]', 'Fulfilled'),
  ('C[C@@H]1Oc2nc(-c3cc(N)cc(F)c3C(F)(F)F)c(F)c3nc(OC[C@H]4CC[C@@H]5COC(C)(C)CN45)nc(c23)N2C[C@H]3CC[C@H](N3)[C@@H]12 (relative stereo) [Compound 125]', 'Not fulfilled');
